Listed here are molecules together with their documented EC50.
molecular target: NLRP3 inflammasomes (Homo sapiens); construct: endogenous in cells; assay: THP-1 pyroptosis test (cell pyroptosis test); settings: THP-1 cells differentiated with PMA, LPS stimulation, 10 μM nigericin, drug 0.001-10 μM, MTT absorbance 562 nm
Sequence (Q96P20 whole entry): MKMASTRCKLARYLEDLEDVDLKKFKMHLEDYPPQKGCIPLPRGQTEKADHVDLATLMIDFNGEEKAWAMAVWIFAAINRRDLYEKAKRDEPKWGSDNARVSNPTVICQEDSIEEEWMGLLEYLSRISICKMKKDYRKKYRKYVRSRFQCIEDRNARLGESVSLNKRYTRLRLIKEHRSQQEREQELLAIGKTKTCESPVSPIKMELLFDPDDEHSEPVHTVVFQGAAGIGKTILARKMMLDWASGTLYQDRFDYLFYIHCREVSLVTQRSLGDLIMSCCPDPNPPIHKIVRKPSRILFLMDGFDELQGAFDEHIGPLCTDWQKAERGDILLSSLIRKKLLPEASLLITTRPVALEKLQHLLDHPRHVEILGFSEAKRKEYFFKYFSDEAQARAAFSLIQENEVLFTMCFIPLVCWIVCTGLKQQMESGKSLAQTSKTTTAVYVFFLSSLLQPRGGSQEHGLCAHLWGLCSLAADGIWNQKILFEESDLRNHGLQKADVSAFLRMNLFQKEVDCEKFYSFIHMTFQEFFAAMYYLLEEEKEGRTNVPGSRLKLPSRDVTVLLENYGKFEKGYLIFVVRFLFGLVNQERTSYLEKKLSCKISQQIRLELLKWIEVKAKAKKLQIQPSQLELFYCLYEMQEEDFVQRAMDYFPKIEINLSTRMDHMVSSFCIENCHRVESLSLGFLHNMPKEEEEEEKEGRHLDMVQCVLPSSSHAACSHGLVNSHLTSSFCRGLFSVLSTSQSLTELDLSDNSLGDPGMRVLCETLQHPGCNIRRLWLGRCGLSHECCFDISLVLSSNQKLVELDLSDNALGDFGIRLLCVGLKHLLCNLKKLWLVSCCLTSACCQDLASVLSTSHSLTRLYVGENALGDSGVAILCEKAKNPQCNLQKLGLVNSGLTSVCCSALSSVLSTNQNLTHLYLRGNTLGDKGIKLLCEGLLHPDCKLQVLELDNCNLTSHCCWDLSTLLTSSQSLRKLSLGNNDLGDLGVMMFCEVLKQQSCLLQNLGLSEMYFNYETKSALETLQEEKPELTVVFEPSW

[[record]]
molecule = "C[C@H](Nc1nnc(-c2ccc(C(F)(F)F)cc2O)c2ccccc12)c1ccccc1 [Compound 8]"
reported = "> 1 µM"

[[record]]
molecule = "CC(=O)N1CCC[C@@H](Nc2nnc(-c3ccc(C(F)(F)F)cc3O)c3ccccc23)C1 [Compound 32]"
reported = "0.02 to 0.1 µM"

[[record]]
molecule = "CC(C)N1CCC[C@@H](Nc2nnc(-c3ccc(C(F)(F)F)cc3O)c3c2cnn3C)C1 [Compound 87]"
reported = "< 0.02 µM"


Query block: Requested field: EC50. Item: CN1CCC[C@@H](Nc2nnc(-c3cc(F)ccc3O)c3ccccc23)C1 [Compound 46]
Result block: 0.02 to 0.1 µM

Query block: Quick one: EC50 of CN1CCC[C@@H](Nc2nnc(-c3ccc(OC(F)(F)F)cc3O)c3ccccc23)C1 [Compound 41] ?
Result block: < 0.02 µM
